// provenance: patent US10611777B2

molecular target: PI3K-β (p110β/p85α) (Homo sapiens (Human), UniProt P42338); assay: Fluorescent determination of PI3K enzyme activity (Transcreener KINASE Assay), PI3K-β;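 further: Far-red fluorescence polarization immunoassay detecting ADP produced by the kinase, 80 min enzyme reaction at room temperature, inhibition relative to ADP formed in 2% DMSO control wells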
Sequence (P42338 whole entry, species assumed): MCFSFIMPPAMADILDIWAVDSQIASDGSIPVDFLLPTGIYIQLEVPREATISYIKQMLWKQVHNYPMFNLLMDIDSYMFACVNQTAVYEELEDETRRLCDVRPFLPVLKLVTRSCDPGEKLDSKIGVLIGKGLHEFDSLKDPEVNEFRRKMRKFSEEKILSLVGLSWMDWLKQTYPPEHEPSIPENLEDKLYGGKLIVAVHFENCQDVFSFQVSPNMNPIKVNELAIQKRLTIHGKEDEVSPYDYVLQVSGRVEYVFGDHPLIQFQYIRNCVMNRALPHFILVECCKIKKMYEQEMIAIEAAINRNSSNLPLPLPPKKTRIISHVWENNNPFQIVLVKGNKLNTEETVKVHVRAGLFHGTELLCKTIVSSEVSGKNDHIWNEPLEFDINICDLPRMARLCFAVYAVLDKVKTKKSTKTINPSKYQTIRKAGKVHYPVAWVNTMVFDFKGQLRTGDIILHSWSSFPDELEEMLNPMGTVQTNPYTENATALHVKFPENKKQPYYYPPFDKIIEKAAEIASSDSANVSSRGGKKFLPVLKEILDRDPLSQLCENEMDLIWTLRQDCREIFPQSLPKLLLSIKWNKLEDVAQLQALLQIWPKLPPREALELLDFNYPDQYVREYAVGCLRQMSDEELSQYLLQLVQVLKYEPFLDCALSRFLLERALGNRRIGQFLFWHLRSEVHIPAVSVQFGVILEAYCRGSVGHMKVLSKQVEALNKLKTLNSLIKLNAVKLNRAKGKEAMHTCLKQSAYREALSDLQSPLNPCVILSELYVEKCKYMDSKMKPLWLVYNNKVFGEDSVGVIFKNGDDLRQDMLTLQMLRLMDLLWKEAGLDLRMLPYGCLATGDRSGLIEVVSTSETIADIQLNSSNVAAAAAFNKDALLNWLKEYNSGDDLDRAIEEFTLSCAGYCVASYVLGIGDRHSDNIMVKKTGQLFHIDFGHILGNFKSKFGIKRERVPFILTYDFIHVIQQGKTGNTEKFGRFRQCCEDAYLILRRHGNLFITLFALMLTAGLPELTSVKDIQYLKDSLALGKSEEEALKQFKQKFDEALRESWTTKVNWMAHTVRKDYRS
Sequence (P27986 whole entry partner, species assumed): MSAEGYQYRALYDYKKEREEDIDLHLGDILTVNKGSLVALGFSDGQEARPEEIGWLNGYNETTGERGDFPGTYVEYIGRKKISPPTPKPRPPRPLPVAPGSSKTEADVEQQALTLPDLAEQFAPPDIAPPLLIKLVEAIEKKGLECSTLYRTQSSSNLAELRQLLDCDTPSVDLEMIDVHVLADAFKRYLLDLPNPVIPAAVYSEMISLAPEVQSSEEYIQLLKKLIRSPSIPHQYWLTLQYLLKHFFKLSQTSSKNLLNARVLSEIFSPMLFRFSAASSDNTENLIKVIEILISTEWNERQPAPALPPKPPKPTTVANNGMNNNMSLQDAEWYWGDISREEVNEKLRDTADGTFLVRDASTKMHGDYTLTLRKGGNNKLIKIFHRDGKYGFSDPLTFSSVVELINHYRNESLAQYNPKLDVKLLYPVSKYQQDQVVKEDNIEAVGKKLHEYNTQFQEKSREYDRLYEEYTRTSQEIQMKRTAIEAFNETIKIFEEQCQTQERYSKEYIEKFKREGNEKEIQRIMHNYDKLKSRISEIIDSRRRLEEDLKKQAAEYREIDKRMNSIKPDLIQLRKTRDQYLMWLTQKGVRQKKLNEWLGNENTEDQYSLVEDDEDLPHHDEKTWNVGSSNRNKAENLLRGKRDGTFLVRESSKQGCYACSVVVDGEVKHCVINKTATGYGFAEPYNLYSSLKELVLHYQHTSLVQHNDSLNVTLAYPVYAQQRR
measure_name: pIC50
Scale: negative log10 of molar concentration, which is what pIC50 denotes.

stdin: So what does the record say about pIC50 for C[C@H](Nc1ncnc(N)c1C#N)c1cc2ncc(Cl)n2nc1-c1ccccc1O ?
stdout: 6.88

----------
test system: SU-DHL-6 cell line; experiment: In vitro cell proliferation assay in SU-DHL-6 cell line; assay type: cell-based; settings: SU-DHL-6, 72 h, CCK-8
measure_name: IC50 (nM)
Report as a plain number; the unit nM is understood.

stdin: Provide the documented IC50 with SU-DHL-6 cell line as the system for Cc1cnc2cc([C@H](C)Nc3ncnc4[nH]cnc34)c(-c3ccccc3)nn12 [Compound 23]
stdout: 78

----------
target: PI3K-γ (p110γ) (Homo sapiens (Human), UniProt P48736); test: Fluorescent determination of PI3K enzyme activity (Transcreener KINASE Assay), PI3K-γ; assay type: biochemical; conditions: inhibition rate at 1 μM;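 further: p110γ enzyme reaction for 80 min at room temperature, ADP formed measured by far-red competitive fluorescence polarization immunoassay, inhibition relative to wells with 2% DMSO only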
Sequence (P48736 whole entry, species assumed): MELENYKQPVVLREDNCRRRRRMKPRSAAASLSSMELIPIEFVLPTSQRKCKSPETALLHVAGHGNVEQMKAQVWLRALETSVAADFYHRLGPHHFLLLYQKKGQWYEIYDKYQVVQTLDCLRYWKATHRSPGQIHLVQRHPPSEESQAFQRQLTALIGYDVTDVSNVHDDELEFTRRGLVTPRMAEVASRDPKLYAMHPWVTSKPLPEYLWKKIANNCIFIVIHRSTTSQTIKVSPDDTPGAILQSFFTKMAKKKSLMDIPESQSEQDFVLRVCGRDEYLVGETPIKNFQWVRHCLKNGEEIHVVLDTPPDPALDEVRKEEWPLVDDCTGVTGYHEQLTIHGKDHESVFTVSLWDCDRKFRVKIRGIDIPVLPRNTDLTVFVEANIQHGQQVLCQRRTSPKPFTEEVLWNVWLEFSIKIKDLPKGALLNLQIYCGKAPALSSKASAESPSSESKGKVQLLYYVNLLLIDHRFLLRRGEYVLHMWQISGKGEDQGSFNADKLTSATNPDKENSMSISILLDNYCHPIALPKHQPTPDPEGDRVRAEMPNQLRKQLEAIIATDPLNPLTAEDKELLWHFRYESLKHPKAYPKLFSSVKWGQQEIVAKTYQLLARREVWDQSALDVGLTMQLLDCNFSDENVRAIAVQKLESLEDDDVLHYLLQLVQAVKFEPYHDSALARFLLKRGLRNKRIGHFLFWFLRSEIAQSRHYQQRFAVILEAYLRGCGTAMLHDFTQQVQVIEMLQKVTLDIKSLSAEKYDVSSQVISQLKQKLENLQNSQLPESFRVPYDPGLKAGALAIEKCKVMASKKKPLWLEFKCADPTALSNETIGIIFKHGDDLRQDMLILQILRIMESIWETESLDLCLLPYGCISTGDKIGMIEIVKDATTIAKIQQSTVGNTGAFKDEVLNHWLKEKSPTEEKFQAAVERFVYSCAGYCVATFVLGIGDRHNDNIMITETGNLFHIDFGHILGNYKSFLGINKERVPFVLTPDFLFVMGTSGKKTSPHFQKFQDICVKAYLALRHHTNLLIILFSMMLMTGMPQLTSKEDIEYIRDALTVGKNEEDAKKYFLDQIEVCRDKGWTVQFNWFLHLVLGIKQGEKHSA
So basically: PI3K-γ IH% at 30% or higher? That is yes (1). Lower than 30%? That is no (0).

Worked examples, 8 compounds total:
# compound, label
measured = [
    ("CC[C@H](Nc1ncnc2[nH]cnc12)c1cc2ncc(Cl)n2nc1-c1cccc(F)c1", "yes (1)"),
    ("CCC(Nc1ncnc2[nH]cnc12)c1cc2ncc(Cl)n2nc1-c1ccccc1 (stereo not drawn)", "no (0)"),
    ("CC(Nc1ncnc(N)c1C#N)c1cc2nccn2nc1-c1ccccc1 (stereo not drawn)", "no (0)"),
    ("C[C@H](Nc1ncnc(N)c1C#N)c1cc2ncc(Cl)n2nc1-c1ccc2ccccc2c1", "yes (1)"),
    ("C[C@H](Nc1ncnc(N)c1-c1cccc(F)c1)c1cc2ncc(Cl)n2nc1-c1ccccc1", "no (0)"),
    ("Cc1cn2nc(-c3ccccc3)c([C@H](C)Nc3ncnc(N)c3C#N)cc2n1", "no (0)"),
    ("C[C@H](Nc1ncnc(N)c1C#N)c1cc2ncc(Cl)n2nc1-c1ccc2scnc2c1", "yes (1)"),
    ("CC[C@H](Nc1ncnc(N)c1C#N)c1cc2ncc(Cl)n2nc1-c1ccccc1", "no (0)"),
]

stdin: Reported PI3K-γ IH% at or above 30%? C[C@H](Nc1ncnc(N)c1C#N)c1cc2ncc(Cl)n2nc1-c1cc(F)ccc1F
stdout: yes (1)

stdin: Could you tell me if the measured PI3K-γ IH% of C[C@H](Nc1ncnc(N)c1-c1ccc(O)c(F)c1)c1cc2ncc(Cl)n2nc1-c1ccccc1 reaches 30% or more?
stdout: yes (1)

----------
target: PI3K-δ (p110δ/p85α) (Homo sapiens (Human), UniProt O00329); assay: Fluorescent determination of PI3K enzyme activity (Transcreener KINASE Assay), PI3K-δ
Sequence (O00329 whole entry, species assumed, one chain of several): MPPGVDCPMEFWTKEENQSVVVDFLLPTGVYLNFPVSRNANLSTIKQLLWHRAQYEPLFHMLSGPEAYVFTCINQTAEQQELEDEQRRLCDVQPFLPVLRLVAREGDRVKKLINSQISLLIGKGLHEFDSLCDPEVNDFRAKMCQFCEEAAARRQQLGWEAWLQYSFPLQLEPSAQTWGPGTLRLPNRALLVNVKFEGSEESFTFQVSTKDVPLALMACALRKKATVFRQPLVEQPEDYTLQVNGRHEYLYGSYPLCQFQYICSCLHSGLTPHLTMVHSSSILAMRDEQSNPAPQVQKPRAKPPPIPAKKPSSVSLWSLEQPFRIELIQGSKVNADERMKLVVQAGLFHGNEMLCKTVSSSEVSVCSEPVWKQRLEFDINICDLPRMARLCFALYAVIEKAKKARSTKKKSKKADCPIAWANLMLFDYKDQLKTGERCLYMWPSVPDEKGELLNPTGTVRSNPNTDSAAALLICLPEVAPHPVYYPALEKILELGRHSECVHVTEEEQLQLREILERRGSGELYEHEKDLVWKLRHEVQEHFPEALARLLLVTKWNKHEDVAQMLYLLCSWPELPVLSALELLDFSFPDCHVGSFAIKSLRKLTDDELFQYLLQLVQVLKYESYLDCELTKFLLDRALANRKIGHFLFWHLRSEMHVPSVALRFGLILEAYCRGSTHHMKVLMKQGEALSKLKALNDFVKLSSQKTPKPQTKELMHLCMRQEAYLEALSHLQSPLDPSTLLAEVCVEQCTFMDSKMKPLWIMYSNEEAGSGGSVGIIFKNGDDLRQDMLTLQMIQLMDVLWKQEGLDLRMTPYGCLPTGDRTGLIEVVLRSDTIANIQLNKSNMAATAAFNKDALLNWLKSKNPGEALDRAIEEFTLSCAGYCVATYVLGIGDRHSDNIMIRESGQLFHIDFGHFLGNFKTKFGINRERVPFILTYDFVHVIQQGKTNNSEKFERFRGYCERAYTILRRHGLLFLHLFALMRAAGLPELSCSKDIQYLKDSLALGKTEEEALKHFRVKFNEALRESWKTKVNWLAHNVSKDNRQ
Overview of recorded pIC50 for various compounds
FYI, pIC50 means -log10 of a concentration in mol per litre.

Consider the following illustrative entries.
# compound, pIC50
measured = [
    ("CCC(Nc1ncnc2[nH]cnc12)c1cc2ncc(Cl)n2nc1-c1ccccc1F (single isomer, unassigned) [Compound 25]", 8.40),
    ("C[C@H](Nc1ncnc(N)c1C#N)c1cc2ncc(Cl)n2nc1-c1ccc2c(c1)OCCO2", 7.66),
    ("C[C@H](Nc1ncnc(N)c1C#N)c1cc2ncc(F)n2nc1-c1ccccc1", 9.00),
]

The record that follows has no pIC50 shown yet.
stdin: Give the measured pIC50 of CCC(Nc1ncnc2[nH]cnc12)c1cc2ncc(Cl)n2nc1-c1ccccc1F (single isomer, unassigned) [Compound 26] .
stdout: 6.08
